Each recorded value in this set is attributed to paper PMC3961306.

Biological target: panel of more than 300 wild-type and mutant kinases (313 kinase panel) (Homo sapiens, UniProt P04049)
Sequence (P04049 whole entry, change not shown): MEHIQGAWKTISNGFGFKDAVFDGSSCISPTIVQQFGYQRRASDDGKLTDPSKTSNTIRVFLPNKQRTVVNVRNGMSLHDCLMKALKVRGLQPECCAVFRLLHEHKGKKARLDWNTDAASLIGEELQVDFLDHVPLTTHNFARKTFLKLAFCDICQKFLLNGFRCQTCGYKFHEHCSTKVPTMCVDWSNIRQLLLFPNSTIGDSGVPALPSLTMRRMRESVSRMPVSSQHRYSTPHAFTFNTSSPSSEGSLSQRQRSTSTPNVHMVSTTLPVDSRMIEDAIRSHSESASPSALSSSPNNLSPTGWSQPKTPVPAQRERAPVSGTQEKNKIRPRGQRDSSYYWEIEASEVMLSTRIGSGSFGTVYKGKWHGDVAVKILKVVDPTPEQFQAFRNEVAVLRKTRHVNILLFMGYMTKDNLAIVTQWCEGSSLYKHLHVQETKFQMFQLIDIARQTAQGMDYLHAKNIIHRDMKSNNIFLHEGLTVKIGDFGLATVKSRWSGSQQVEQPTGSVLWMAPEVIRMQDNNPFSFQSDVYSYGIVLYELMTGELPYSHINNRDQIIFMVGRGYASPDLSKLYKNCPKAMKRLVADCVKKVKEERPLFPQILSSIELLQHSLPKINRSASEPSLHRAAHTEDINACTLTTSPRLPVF
Test: Kinase profiling in a biochemical assay panel (mobility shift assays and ELISA), %-inhibition at 1 μM; selectivity entropy
Details: kinase RAF1; 1 μM
# maps each entry to its %-inhibition of RAF1

{"SMILES_TEXT": "CC(=O)Nc1cccc(-n2c(=O)n(C3CC3)c(=O)c3c(Nc4ccc(I)cc4F)n(C)c(=O)c(C)c32)c1", "%-inhibition of RAF1 (%)": 61}
{"SMILES_TEXT": "CCCS(=O)(=O)Nc1ccc(F)c(C(=O)c2c[nH]c3ncc(-c4ccc(Cl)cc4)cc23)c1F", "%-inhibition of RAF1 (%)": 96}
{"SMILES_TEXT": "O=S(=O)(c1cccc2cnccc12)N1CCCNCC1", "%-inhibition of RAF1 (%)": 8}
{"SMILES_TEXT": "COc1cc(Nc2c(C#N)cnc3cc(OCCCN4CCN(C)CC4)c(OC)cc23)c(Cl)cc1Cl", "%-inhibition of RAF1 (%)": -3}
{"SMILES_TEXT": "CO[C@H]1C[C@@H]2CC[C@@H](C)[C@@](O)(O2)C(=O)C(=O)N2CCCC[C@H]2C(=O)O[C@H]([C@H](C)C[C@@H]2CC[C@@H](OC(=O)C(C)(CO)CO)[C@H](OC)C2)CC(=O)[C@H](C)/C=C(\\C)[C@@H](O)[C@@H](OC)C(=O)[C@H](C)C[C@H](C)/C=C/C=C/C=C/1C", "%-inhibition of RAF1 (%)": -0.648}
{"SMILES_TEXT": "CO[C@H]1C[C@@H]2CC[C@@H](C)[C@@](O)(O2)C(=O)C(=O)N2CCCC[C@H]2C(=O)O[C@H]([C@H](C)C[C@@H]2CC[C@@H](OCCO)[C@H](OC)C2)CC(=O)[C@H](C)/C=C(\\C)[C@@H](O)[C@@H](OC)C(=O)[C@H](C)C[C@H](C)/C=C/C=C/C=C/1C", "%-inhibition of RAF1 (%)": 14}

###

This listing pairs compounds with measured %-inhibition of PRKX.
Target: panel of more than 300 wild-type and mutant kinases (313 kinase panel) (Homo sapiens, UniProt P51817)
Sequence (P51817 whole entry, change not shown): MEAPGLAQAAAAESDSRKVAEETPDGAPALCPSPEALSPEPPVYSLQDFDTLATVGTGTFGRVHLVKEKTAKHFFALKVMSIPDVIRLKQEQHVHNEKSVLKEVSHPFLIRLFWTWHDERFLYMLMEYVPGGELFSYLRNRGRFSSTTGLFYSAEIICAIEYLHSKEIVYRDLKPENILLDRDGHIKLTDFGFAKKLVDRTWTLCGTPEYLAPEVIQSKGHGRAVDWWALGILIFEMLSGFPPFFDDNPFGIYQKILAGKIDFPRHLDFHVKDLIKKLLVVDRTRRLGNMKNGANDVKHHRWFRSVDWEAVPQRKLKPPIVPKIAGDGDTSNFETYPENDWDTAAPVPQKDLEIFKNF
Test: Kinase profiling in a biochemical assay panel (mobility shift assays and ELISA), %-inhibition at 1 μM; selectivity entropy
Details: kinase PRKX; 1 μM

{"COMPOUND": "Cc1ccc(Nc2nccc(N(C)c3ccc4c(C)n(C)nc4c3)n2)cc1S(N)(=O)=O [pazopanib]", "%-inhibition of PRKX, %": -1.14}
{"COMPOUND": "Cc1cn(-c2cc(NC(=O)c3ccc(C)c(Nc4nccc(-c5cccnc5)n4)c3)cc(C(F)(F)F)c2)cn1 [nilotinib]", "%-inhibition of PRKX, %": 6}
{"COMPOUND": "COc1cc(Nc2c(C#N)cnc3cc(OCCCN4CCN(C)CC4)c(OC)cc23)c(Cl)cc1Cl [bosutinib]", "%-inhibition of PRKX, %": -4.31}
{"COMPOUND": "Cc1ccc(C(=O)Nc2ccc(CN3CCN(C)CC3)c(C(F)(F)F)c2)cc1C#Cc1cnc2cccnn12 [ponatinib]", "%-inhibition of PRKX, %": 26}

###

Listed next: entries and their corresponding %-inhibition of MARK2.
Molecular target: panel of more than 300 wild-type and mutant kinases (313 kinase panel) (Homo sapiens)
Experiment: Kinase profiling in a biochemical assay panel (mobility shift assays and ELISA), %-inhibition at 1 μM; selectivity entropy
Conditions: kinase MARK2; compound at 1 μM

{"SMILES_TEXT": "COc1cc2c(Nc3ccc(Br)cc3F)ncnc2cc1OCC1CCN(C)CC1", "UNIT_TAG": "%", "%-inhibition of MARK2": -9}
{"SMILES_TEXT": "Cc1cn(-c2cc(NC(=O)c3ccc(C)c(Nc4nccc(-c5cccnc5)n4)c3)cc(C(F)(F)F)c2)cn1", "UNIT_TAG": "%", "%-inhibition of MARK2": 0.732}
{"SMILES_TEXT": "CC(=O)Nc1cccc(-n2c(=O)n(C3CC3)c(=O)c3c(Nc4ccc(I)cc4F)n(C)c(=O)c(C)c32)c1", "UNIT_TAG": "%", "%-inhibition of MARK2": -6}
{"SMILES_TEXT": "CC(C)(C)c1nc(-c2cccc(NS(=O)(=O)c3c(F)cccc3F)c2F)c(-c2ccnc(N)n2)s1", "UNIT_TAG": "%", "%-inhibition of MARK2": 2.85}
{"SMILES_TEXT": "CCCS(=O)(=O)Nc1ccc(F)c(C(=O)c2c[nH]c3ncc(-c4ccc(Cl)cc4)cc23)c1F", "UNIT_TAG": "%", "%-inhibition of MARK2": -0.167}
{"SMILES_TEXT": "Cc1ccc(Nc2nccc(N(C)c3ccc4c(C)n(C)nc4c3)n2)cc1S(N)(=O)=O", "UNIT_TAG": "%", "%-inhibition of MARK2": 8}
{"SMILES_TEXT": "CS(=O)(=O)CCNCc1ccc(-c2ccc3ncnc(Nc4ccc(OCc5cccc(F)c5)c(Cl)c4)c3c2)o1", "UNIT_TAG": "%", "%-inhibition of MARK2": 10}
{"SMILES_TEXT": "O=S(=O)(c1cccc2cnccc12)N1CCCNCC1", "UNIT_TAG": "%", "%-inhibition of MARK2": 3.21}
